Hello, the source for this data is patent US9410958B2, in case you need it.

- assayComment: Photophysical properties and fluorescence quantum yields of Si-rhodamines in PBS pH 7.4
- Type: physicochemical
Reported λem values for a set of compounds

compound	λem, nm
COc1cc(-n2cc(CCC(=O)NCCO)nn2)cc(C2=C3C=CC(=[N+](C)C)C=C3[Si](C)(C)c3cc(N(C)C)ccc32)c1OC [Compound 6-triazole]	670
CN(C)c1ccc2c(c1)[Si](C)(C)C1=CC(=[N+](C)C)C=CC1=C2c1cc(N=[N+]=[N-])ccc1N1CCOCC1 [Compound 3-N3]	667
CN(C)c1ccc2c(c1)[Si](C)(C)C1=CC(=[N+](C)C)C=CC1=C2c1ccc(-n2cc(CCC(=O)NCCO)nn2)c2ccccc12 [Compound 1-triazole]	670
CN(C)c1ccc2c(c1)[Si](C)(C)C1=CC(=[N+](C)C)C=CC1=C2c1cc(N)ccc1N1CCOCC1 [Compound 3-NH2]	672
CN(C)c1ccc2c(c1)[Si](C)(C)C1=CC(=[N+](C)C)C=CC1=C2c1cc(N=[N+]=[N-])cc2[nH]ccc12 [Compound 4-N3]	669
COc1cc(OC)c(C2=C3C=CC(=[N+](C)C)C=C3[Si](C)(C)c3cc(N(C)C)ccc32)cc1N [Compound 9-NH2]	664
COc1cc(N=[N+]=[N-])cc(C2=C3C=CC(=[N+](C)C)C=C3[Si](C)(C)c3cc(N(C)C)ccc32)c1OC [Compound 6-N3]	669
COc1ccc(-n2cc(CCC(=O)NCCO)nn2)cc1C1=C2C=CC(=[N+](C)C)C=C2[Si](C)(C)c2cc(N(C)C)ccc21 [Compound 2-triazole]	669
CN(C)c1ccc2c(c1)[Si](C)(C)C1=CC(=[N+](C)C)C=CC1=C2c1cc(-n2cc(CCC(=O)NCCO)nn2)cc2[nH]ccc12 [Compound 4-triazole]	668
COc1cc(OC)c(C2=C3C=CC(=[N+](C)C)C=C3[Si](C)(C)c3cc(N(C)C)ccc32)cc1N=[N+]=[N-] [Compound 9-N3, 3-Azido-4,6-dimethoxy-Si-rhodamine]	666
CN(C)c1ccc2c(c1)[Si](C)(C)C1=CC(=[N+](C)C)C=CC1=C2c1cc(N)cc2[nH]ccc12 [Compound 4-NH2]	673
CN(C)c1ccc2c(c1)[Si](C)(C)C1=CC(=[N+](C)C)C=CC1=C2c1cc(-n2cc(CCC(=O)NCCO)nn2)ccc1N1CCOCC1 [Compound 3-triazole]	676
CN(C)c1ccc2c(c1)[Si](C)(C)C1=CC(=[N+](C)C)C=CC1=C2c1cc(N=[N+]=[N-])cc2c1OCCO2 [Compound 5-N3]	668

###

- assayComment: Photophysical properties and fluorescence quantum yields of Si-rhodamines in PBS pH 7.4
- Format: physicochemical
- appliedConditions: cresyl violet in methanol as standard
Note to self: Φfl under 0.04 means Met, ties and anything higher get Not met.

> print(dat)
                                querysmiles  discretelabel
1  CN(C)c1ccc2c(c1)[Si](C)(C)C1=CC(=[N+](C)C)C=CC1=C2c1cc(-n2cc(CCC(=O)NCCO)nn2)ccc1N1CCOCC1            Met
2  COc1cc(N)c(OC)c(C2=C3C=CC(=[N+](C)C)C=C3[Si](C)(C)c3cc(N(C)C)ccc32)c1            Met
3  COc1cc(C)c(C2=C3C=CC(=[N+](C)C)C=C3[Si](C)(C)c3cc(N(C)C)ccc32)cc1-n1cc(CCC(=O)NCCO)nn1        Not met
4  CN(C)c1ccc2c(c1)[Si](C)(C)C1=CC(=[N+](C)C)C=CC1=C2c1cc(-n2cc(CCC(=O)NCCO)nn2)cc2c1OCCO2        Not met
5  COc1cc(OC)c(C2=C3C=CC(=[N+](C)C)C=C3[Si](C)(C)c3cc(N(C)C)ccc32)cc1N            Met
